Target: T1, recombinant human CD123-Fc (human, UniProt P26951 19-305)
T1 construct: not shown: Fc part of CD123-Fc
T1 sequence: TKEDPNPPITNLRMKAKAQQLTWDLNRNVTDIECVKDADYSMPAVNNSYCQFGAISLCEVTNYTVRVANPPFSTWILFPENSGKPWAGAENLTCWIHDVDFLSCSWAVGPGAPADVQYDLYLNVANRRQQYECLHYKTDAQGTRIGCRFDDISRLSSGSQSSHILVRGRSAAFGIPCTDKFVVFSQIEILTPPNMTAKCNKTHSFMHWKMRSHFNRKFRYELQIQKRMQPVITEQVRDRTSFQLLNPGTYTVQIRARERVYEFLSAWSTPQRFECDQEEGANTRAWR
Experiment: phage ELISA, A450 target/A450 IgG1-Fc
Quick list: ELISA_avg per entry.
endpoint_name: ELISA_avg (ratio)

1) SEQ ID NO 719 (designed binder) MGSWWEFHDRLEAIEDRLWALGGSEAELAAFEKEIAAFESELQAYKGKGNPEVEYLRIEAADIRRQLQAYRHN    6.4
2) SEQ ID NO 681 (designed binder) MGSWEEFHDRLMAIETRLWALGGSEAELAAFEKEIAAFESELQAYKGKGNPEVEWLRYEAADIRDYLQAYRHN    4.3
3) SEQ ID NO 715 (designed binder) MGSWWEFEHRLFAIEDRLWALGGSEAELAAFEKEIAAFESELQAYKGKGNPEVEFLRDYAAEIRDYLQAYRHN    7.6
4) SEQ ID NO 628 (designed binder) MGSWWEFEQRLDAIETRLWALGGSEAELAYFEHIIADFEDELQIYKGKGNPEVEALGWEAFAIDGELTAYRHN    4.7
5) SEQ ID NO 677 (designed binder) MGSWGEFWARLEAIWIRLDALGGSEAELAAFEKEIAAFESELQAYKGKGNPEVEWLREEAADIRRSLQAYRHN    15
6) SEQ ID NO 736 (designed binder) MGSWFEFVDRLEAIEMRLFALGGSEAELAAFEKEIAAFESELQAYKGKGNPEVELLRWRAAMIRYDLQAYRHN    7.1
7) SEQ ID NO 739 (designed binder) MGSWYEFYQRLEAIEDRLFALGGSEAELAAFEKEIAAFESELQAYKGKGNPEVEWLRDEAAEIRVVLQAYRHN    3
8) SEQ ID NO 729 (designed binder) MGSWFEFEWRLEAIFDRLYALGGSEAELAAFEKEIAAFESELQAYKGKGNPEVEVLRAEAAEIRLRLQAYRHN    6.9
9) SEQ ID NO 687 (designed binder) MGSWVEFYDRLDAIEHRLDALGGSEAELAAFEKEIAAFESELQAYKGKGNPEVEWLRDEAAFIRDMLQAYRHN    3.4
10) SEQ ID NO 714 (designed binder) MGSWVEFESRLAAIEHRLWALGGSEAELAAFEKEIAAFESELQAYKGKGNPEVEELREYAAEIRDWLQAYRHN    3.7
